Please go through the items and note down their growth.
System: BT-549 breast
Assay: NCI-60 one-dose screen, 48 h (100 = growth as untreated, 0 = no growth, -100 = all killed)
Settings: 10 µM unless noted
Compounds without any hit were thinned out: in the full panel of roughly 83,000, 20% have a hit.
Answer in %, number only, no unit symbol.

Notebook entry, BT-549 breast assay: growth of `COc1ccc2c(c1)c(-c1nc(-c3c[nH]c4c(Cl)nccc34)cs1)cn2C` = ?
98.8

Quick one: `O=C(NCc1ccc(Cn2c(=O)sn(-c3ccc(Cl)cc3)c2=O)cc1)OCc1ccc2c(Cl)cc(Cl)c(O)c2n1`
60.6

Same question for CN1CCCc2cc(/C=C3\SC(=S)N(C(Cc4ccc(O)cc4)C(=O)O)C3=O)ccc21 (centres undefined) please.
106

Note, next up: `COC(=O)c1nc(-c2ccc(C)cc2)oc1Sc1ccc(C)cc1`
101

// same read-out, input: `O=C(CCCCCCCCC(=O)N/N=C\c1ccccc1O)N/N=C\c1ccccc1O`
26.9

Item: `CCNC(=O)Nc1ncccc1OCc1ccc(F)cc1`
114

Item: CC[C@]1(O)CC2CN(CCc3c([nH]c4ccccc34)C(C(=O)OC)(c3cc4c(cc3OC)N(C=O)[C@H]3[C@@](O)(C(=O)OC)[C@H](OC(C)=O)[C@]5(CC)[C@@H]6C[C@@H]6CN6CC[C@]43[C@@H]65)C2)C1 (some centres undefined)
-2.67

Consider next the molecule `CS(=O)(=O)Nc1cc(-c2ccc3ncnc(Nc4ccc(F)c(Cl)c4)c3c2)cnc1Cl` in the same way.
-21.7

Same lookup for `CC(=O)c1c(C)nc2ccccc2c1/C=C/c1cccc(C)c1` , please.
64.2

What would you report for `CC1=C2[C@@H](CC1)[C@]1(C)O[C@@](C3CC3)(C[C@H]1OC(=O)CO)[C@H]2OC(=O)/C=C/c1ccccc1` ?
6.63

Input `CN1Cn2c(ccc2C(F)(F)F)C(=O)CS1(=O)=O`
105

Check `COC1=CC(c2ccc[nH]2)=N/C1=C\c1[nH]c(C)c(C(=O)Oc2ccccc2)c1C` too.
-15.4

How about `COCCOc1cc2ncnc(N3CCN(S(=O)(=O)c4ccccc4Cl)CC3)c2cc1OCCOC` ?
89.5

Try this molecule next: `C=CCNC(=O)Cc1c(-c2ccc(OC)cc2)oc2c(OC)c3c(c(OC)c12)OCO3`
100

Try this molecule too: `Cc1ccc(-c2nc3nc(-c4ccc(Br)cc4)nc(N4CCCNCC4)c3o2)cc1`
99.5

Next record, please: `COc1cc2ncnc(Nc3ccc(F)c(Cl)c3)c2cc1OCC(=O)N1CCCCC1`
94.4

Next: `COc1cc(NS(=O)(=O)C(C)C)cc(-c2cc(-c3ccc(N4CCNCC4)cc3)cnc2N)c1`
78.4

# iterate: `Nc1nc(CSc2n[nH]c(N)n2)nc(Nc2ccccc2)n1`
95.7

Also need `CCNC(=S)n1nc(SC)c(C(=O)OCC)c1N` , thanks.
95.3

* * *

Kindly supply the reported growth values for the records listed here.
System: OVCAR-5 ovarian
Assay: NCI-60 one-dose screen, 48 h (100 = growth as untreated, 0 = no growth, -100 = all killed)
Details: 10 µM unless noted
Compounds without any hit were thinned out: in the full panel of roughly 83,000, 20% have a hit.
Report only the number, with the unit % understood.

Request the reported growth associated with C/C=C(/C)C(=O)O[C@@H]1CC(C)(C)CC2C34OC(=O)[C@@]21CC[C@@]3(C)[C@]1(C)CCC2C(C)(C)C(=O)CC[C@]2(C)C1C[C@@H]4Cl (some centres undefined)
95.9

// query: CCN1C(=O)N(c2ccccc2)C2NC(=S)N(/N=C/C=C/c3ccccc3)C21 (centres undefined)
59.7

`C=C(CN1CC=CCC1)[C@@H]1CC[C@]2(COC(C)=O)CC[C@]3(C)[C@H](CC[C@@H]4[C@@]5(C)CC[C@H](O)C(C)(C)[C@@H]5CC[C@]43C)[C@@H]12` ?
132

What do you have for `O=C(NNC(=S)Nc1ccccc1)c1ccncc1` ?
107

* * *

Provide the reported growth of each item.
Tested on: HCT-15 colon
Assay: NCI-60 one-dose screen, 48 h (100 = growth as untreated, 0 = no growth, -100 = all killed)
Conditions: 10 µM unless noted
Description: Growth inhibition of the HCT-15 human tumor cell line is measured as a screen for anti-cancer activity. Cells are grown in 96 well plates and exposed to the test compound for 48 hours. Compounds are tested at a single concentration, which is 10^-5 M for most compounds. The reported endpoint is percent growth (GI% or GIPRCNT), where numbers from 0 - 100% represent growth inhibition, and numbers from -100% - 0 represent cell death. For example, a value of 40 represents 60% growth inhibition. […]
This is part of a sample that, as a whole, favours compounds with a hit. Of some 83,000 tested, about 20% had one in any assay. The source made the active and inactive calls. Rule for the calls: active = growth percent below 10; inactive = the rest.

What does the record list as growth for Nc1ncnc2c1C(c1ccc([N+](=O)[O-])cc1)c1sc3c(F)cccc3c1O2 (stereo not drawn) ?
102% (inactive)

Thanks! And CC(Sc1ccccc1)C(=O)O (stereo not drawn) ?
100% (inactive)

Query `Cc1ccc(C(=O)c2ccc(CC(=O)N=Nc3c(O)[nH]c4ccc(OC(F)(F)F)cc34)n2C)cc1` next
93.3% (inactive)

Request: `COc1cc(NS(=O)(=O)C(C)C)cc(-c2cc(-c3ccc(N4CCNCC4)cc3)cnc2N)c1`
112% (inactive)

Can you handle `COc1cc(N=Nc2ccc(O)c3ncccc23)c2ncccc2c1` next?
27.5% (inactive)

`O=C(NCc1ccc(Cn2c(=O)sn(-c3ccc(Cl)cc3)c2=O)cc1)OCc1ccc2c(Cl)cc(Cl)c(O)c2n1` ?
15.7% (inactive)

Also check C=C1CCC2C3(C)COC(c4ccc(NC(C)=O)cc4)OC3CCC2(C)C1C/C=C1/C(=O)OCC1O (stereo not drawn)
63.3% (inactive)

Continue with `Cc1c(CC(=O)OCCO)cc(-c2ccc(Cl)cc2)n1-c1ccccc1`
94.4% (inactive)

Quick one: `N#C/C(=C\c1ccc(Br)cc1)n1nnc2c(F)cccc21`
1.57% (active)

Next compound: `O=C1c2cc3c(cc2-c2c1c1ccc(Cl)cc1c(=O)n2CCCn1ccnc1)OCO3`
7.3% (active)

How about this compound: `CSc1nnc(-c2cc3c([nH]c4ccccc43)c(-c3cccc(O)c3)n2)n1-c1ccc(C)cc1`
23.2% (inactive)

Another compound to check: `NS(=O)(=O)c1ccc(C(=O)N=Nc2c(O)[nH]c3c(F)cccc23)cc1`
105% (inactive)

Param item: O=C(CC1(O)C(=O)Nc2ccc(Br)cc21)c1ccc(Cl)cc1 (stereo not drawn)
109% (inactive)

And then CN(Cc1ccccc1)c1nc(Cl)c(C2CC(c3ccc4c(c3)OCO4)=NN2c2cc(Cl)cc(Cl)c2)s1 (stereo not drawn) , what is it?
98.7% (inactive)

What do we get for COc1ccc(C2=C(CN)C(O)NC(=NCC(=O)c3ccc4ccccc4c3)N2)cc1 (stereo not drawn) ?
106% (inactive)

// same read-out, input: O=C1OCC2=C1C(c1cccc(C(F)(F)F)c1)c1cc3c(cc1N2CCO)OCCO3 (stereo not drawn)
14.1% (inactive)

Now this one: `CC(=O)OC[C@]12CCC(C)(C)C=C1[C@H]1CC[C@@H]3[C@@]4(C)CCCNC(C)(C)[C@@H]4CC[C@@]3(C)[C@]1(C)CC2`
89.6% (inactive)

Request: `O=C(Cc1ccc(F)cc1)c1ccccc1`
108% (inactive)

Also, CC(=O)N1N=C(c2ccc(Nc3nc(Nc4ccc(F)cc4)nc(Nc4ccc(F)cc4)n3)cc2)CC1c1ccccc1 (stereo not drawn) please.
89.3% (inactive)

Continue with `CN1Cn2c(ccc2C(F)(F)F)C(=O)CS1(=O)=O`
105% (inactive)

Proceed to `O=C(N=Nc1c(O)[nH]c2ccccc12)Nc1ccccc1Cl`
68.1% (inactive)

Also, `CC1=C2[C@@H](CC1)[C@]1(C)O[C@@](C3CC3)(C[C@H]1OC(=O)CO)[C@H]2OC(=O)/C=C/c1ccccc1` please.
97% (inactive)

Repeat with `COc1ccc2c(c1)oc1c(C)c3c(c(C)c12)C(=O)N(Nc1ccccc1)C3=O`
105% (inactive)

Do the same for `N#Cc1cc(-c2ccnc(Nc3ccc(NC(=O)CCl)cc3)n2)ccc1N1CCCC1` please
-45.7% (active)

Another compound to check: Cc1nc2sc(C(=O)Nc3cccc(Cl)c3C)c(N)c2cc1C(O)c1ccccc1 (stereo not drawn)
12.3% (inactive)

Also need `[2H]C([2H])([2H])Oc1cccc(/C=C/C(=O)/C=C(/C=C/c2cccc(OC([2H])([2H])[2H])c2OC([2H])([2H])[2H])OB(F)F)c1OC([2H])([2H])[2H]` , thanks.
58.3% (inactive)

Consider next the compound CN(Cc1ccccc1)c1nc(Cl)c(C2CC(c3ccc(F)cc3)=NN2C=O)s1 (stereo not drawn) in the same way.
90.4% (inactive)

Next compound up: `C#CCn1cnc2cnc(Nc3cccc(NC(=O)CCl)c3)nc21`
6.26% [6.25 µM] (active)

Proceed to `CCCCn1c(C(=O)c2c[nH]c3ccccc23)n[nH]c1=S`
99% (inactive)

Try this compound next: CCOC(=O)CC1CSC(c2cccc(Cl)c2)=N1 (stereo not drawn)
106% (inactive)

Next record, please: `Cc1ccc(S(=O)(=O)OC[C@@]2(C)CC[C@]3(C)CC[C@]4(C)C(=C3C2)C=C[C@@H]2[C@@]3(C)CCCNC(C)(C)[C@@H]3CC[C@]24C)cc1`
-74.5% (active)

Also, `Brc1ccc(/C=C(/C2=NCCN2)n2ccc3ccccc32)cc1` please.
73.7% (inactive)

Next entry: `COc1ccccc1/C=C1\COc2ccc(O)cc2C1=O`
48.7% (inactive)

Now consider `COc1ccc(/C=C/C(=O)c2cc3c(N)c(C(=O)Nc4ccccc4Cl)sc3nc2C)cc1` .
54.2% (inactive)

And then `CCOC(=O)c1cnn(-c2ccc(S(N)(=O)=O)cc2)c1N` , what is it?
108% (inactive)

Another compound to look at: `COc1cc(CNC(=O)CCCC/C=C/C(C)C)ccc1OCc1cn(-c2ccc([N+](=O)[O-])cc2)nn1`
96.2% (inactive)

Repeat with `COc1ccc(-c2cc(-c3cc(OC)c(OC)c(OC)c3)c(C#N)c(=O)n2CCCCC(=O)O)cc1`
77.3% (inactive)

Another compound: `O=C1/C(=C/c2ccc(F)c(F)c2)CN(C(=O)C(Cl)Cl)C/C1=C\c1ccc(F)c(F)c1`
-74.9% (active)
